The reported numbers originate from ChEMBL document CHEMBL1129253.

As shown below, each of these compounds has a reported inhibition in vivo at 30 mg/kg value.
System: Rattus norvegicus
Assay: Tested for sephadex-induced lung Eosinophilia inhibition at 30 mg/kg in rat
Assay type: functional

{"itemSmiles": "C/N=C(\\S)n1nc(N)nc1N", "assayTarget": "Rattus norvegicus", "inhibition in vivo at 30 mg/kg [%]": 53}
{"itemSmiles": "Nc1ncnn1/C(S)=N/C1CCCCC1", "assayTarget": "Rattus norvegicus", "inhibition in vivo at 30 mg/kg [%]": 31}
{"itemSmiles": "CCCCCC/N=C(\\S)n1ncnc1N", "assayTarget": "Rattus norvegicus", "inhibition in vivo at 30 mg/kg [%]": -1}
{"itemSmiles": "C/N=C(\\S)c1ncccc1N", "assayTarget": "Rattus norvegicus", "inhibition in vivo at 30 mg/kg [%]": 9}
